Biological target: T1, recombinant protein CDH6 (UniProt P55285 54-615)
T1 construct: also called CDH6 recombinant protein; CDH6 antigen
T1 sequence (looked up): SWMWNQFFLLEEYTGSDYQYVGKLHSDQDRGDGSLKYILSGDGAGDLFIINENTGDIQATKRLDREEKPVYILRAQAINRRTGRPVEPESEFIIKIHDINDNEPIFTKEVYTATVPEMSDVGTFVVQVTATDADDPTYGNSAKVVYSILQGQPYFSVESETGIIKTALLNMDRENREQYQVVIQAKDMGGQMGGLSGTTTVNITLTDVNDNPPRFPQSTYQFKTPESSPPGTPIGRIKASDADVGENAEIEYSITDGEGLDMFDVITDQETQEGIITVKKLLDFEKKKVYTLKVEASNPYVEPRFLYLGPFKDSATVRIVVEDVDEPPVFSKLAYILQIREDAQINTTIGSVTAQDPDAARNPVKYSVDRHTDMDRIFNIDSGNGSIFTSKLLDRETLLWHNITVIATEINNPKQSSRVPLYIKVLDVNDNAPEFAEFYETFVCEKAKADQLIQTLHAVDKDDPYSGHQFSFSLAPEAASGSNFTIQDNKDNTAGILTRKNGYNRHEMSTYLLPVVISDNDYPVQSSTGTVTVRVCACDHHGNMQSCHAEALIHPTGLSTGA
Assay: ELISA, CDH6 coated; antibody 25 ng/mL
measured.property: OD450 (OD450)
Express the result in OD450 but write the number alone.

[in] For CL069707 antibody (antibody, V domains shown, Mouse monoclonal antibody from hybridoma, purified from ascites with Protein A/G; also called #23; No. 23) VH: EVHLVESGGGLVQPKGSLKLSCVASGFTFTTYAMNWVRQAPGKGLEWVARIRIKNNNYATYYADSVTDRFTISRDDSQSMLYLQMNNLKTEDTAMYYCVRPDYGNYGLAYWGQGTLVTVSA VL: EIVLTQSPTTMAASPGEKITITCSASSSISSHYLHWYQQKPGFSPKLLIYRSFYLASGVPLRFTGSGSGTSYSLTIGTMEAEDVATYYCQQDIVPLTFGAGTKLELK , write its OD450.
[out] 1.18

Data origin: patent US20250090677A1
